System: MS2 coat protein
Test: apparent KD of MS2 coat protein; designed switch direction (-1 OFF switch, 1 ON switch): -1; higher = weaker reporter binding
Conditions: Eterna round: R95; input ligand: microRNA oligo, concentration not stated
The following ranges of apparent KD of MS2 coat protein define the classes used here: range A (below 30 nM), range B (30 nM to below 40 nM), range C (40 nM or more)

# count of solved cases: 10
# macromolecule_sequence, class_assignment
rows = [
    ("GCUUGUAGAGGAUAUACGAGGGCCCGAGCGGAUAACACCGCACAUGAGGAUCACCCAUGUAGAAGGCUACCACC [Riquinza] (puzzle: Exclusion 2)", "range A"),
    ("GAGAAACAUGAGGAUCACCCAUGUGAGGAUAUGUGAGACUAAAGCGCGCAGGCUAAGGACAGAAGGCACAAGGA [Excls1-Ia] (puzzle: Exclusion 1)", "range C"),
    ("AUGAGGUUAGGAUAUACAUGAGGAUCACCCAUGUUGAAAGGAUAGAUAAGAAAAGAUAGUAGAAGGAACAAAGA [JR_Exclu3_Sub052] (puzzle: Exclusion 3)", "range B"),
    ("AGGUGAUAUCUGUCGAUGGACAUGAGGAUCACCCAUGUGAGCUUUUUGCUCGUCUUAUAAACCGGUGACAGACCUUC [Sensor v3, turn-off variant 1 (MOD of Zalaso)] (puzzle: Sensor v3, turn-off variant 1)", "range A"),
    ("AAGAAACAUGAGGAUCACCCAUGUGAGGAUAUGGAAAAGAAAAGAAAAGAAAGAAGAAUCAGAAGGCACAAAGG [salish99-ex1_r3_020] (puzzle: Exclusion 1)", "range B"),
    ("GUUGGAUGAGGAUAUCGAGGUUAGUACAUGAGGAUCACCCAUGUUAUCCAGGUGUCGGUUCGAGAAGGCAUUGGAC [LRO-Ex5-14] (puzzle: Exclusion 5)", "range B"),
    ("AUACCACGAGGAUAUCGUCUAUAAUACAUGAGGAUCACCCAUGUUAUAUCUGUAAUGUUUCGAGAAGGCGUUUGUU [JR_E5_Sub085] (puzzle: Exclusion 5)", "range A"),
    ("CCGGAAUAACAGGAUAUAGGAGUCGAUAGACACCUAGAAGGGUUGACAUGAGGAUCACCCAUGUGUCCUACCGG [Fiskers Ex 6 - 81] (puzzle: Exclusion 6)", "range C"),
    ("UUUUAACAUGAGGAUCACCCAUGUGAGGAUAUCGAAAUUUAUAUUUAUAUUAAUAUAUCGAGAAGGCACAUUUU [JMF 80] (puzzle: Exclusion 1)", "range C"),
    ("ACAAGCUUUUUGUUCGUCUUAUAAUAAUAAAUAAAUAUAACAUGAGGAUCACCCAUGUUGAGAAGACAGCCUCAUGU [Sesor Array 23 - Jieux - Sensor v3, turn-off variant 2] (puzzle: Sensor v3, turn-off variant 2)", "range C"),
]

[ask] Class (by measured apparent KD of MS2 coat protein) for AGGUAACAUGAGGAUCACCCAUGUCAGGAUAUCAUGAAGAGUAGAUUAGAGGAGAGGUUGAGAAGGGACUAUAU [Excluse me! 15 - Jieux - Exclusion 1] (puzzle: Exclusion 1)
[reply] range B

[ask] Ok, now AGCCCUGGCGUCAGGAUAUCGAAACCGCAAAAGGACGAGAAGGGACAUGAGGAUCACCCAUGUAGUGAGUUAAA [Isedrecedi] (puzzle: Brourd's mod of Exclusion 4)
[reply] range B
